# ASSAY TARGET: α-glucosidase (Saccharomyces cerevisiae, UniProt P53341)
# Construct: the yeast form of α-glucosidase, which was extracted from Saccharomyces cerevisiae; purchased Sigma-Aldrich; host or cells: Saccharomyces cerevisiae (extracted)
# Sequence (P53341 whole entry): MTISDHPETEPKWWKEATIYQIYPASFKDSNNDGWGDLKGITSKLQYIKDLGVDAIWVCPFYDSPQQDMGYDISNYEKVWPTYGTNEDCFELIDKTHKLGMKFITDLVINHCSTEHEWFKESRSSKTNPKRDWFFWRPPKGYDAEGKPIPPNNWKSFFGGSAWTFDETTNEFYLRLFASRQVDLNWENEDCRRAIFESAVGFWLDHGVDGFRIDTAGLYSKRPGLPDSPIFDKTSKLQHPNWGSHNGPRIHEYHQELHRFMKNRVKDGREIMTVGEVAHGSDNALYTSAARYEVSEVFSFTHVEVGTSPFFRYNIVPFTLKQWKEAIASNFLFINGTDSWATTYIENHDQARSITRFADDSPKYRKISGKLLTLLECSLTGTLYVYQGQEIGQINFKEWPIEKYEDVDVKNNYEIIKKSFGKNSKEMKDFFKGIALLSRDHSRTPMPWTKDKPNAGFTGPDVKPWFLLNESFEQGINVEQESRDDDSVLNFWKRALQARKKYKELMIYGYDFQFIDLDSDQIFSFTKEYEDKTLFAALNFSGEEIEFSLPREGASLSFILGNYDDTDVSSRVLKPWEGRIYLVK
# PROTOCOL SUMMARY: Anti-α-glucosidase assay (p-nitrophenyl-α-D-glucopyranoside substrate, absorbance 405 nm)
# Format: biochemical
# ASSAY CONDITIONS: Conc. 30 (unit not given); IC50 determination curve
Attribute: Inhibation
Returns: the value as a bare number; no unit string appended.

Field: example entries. Status: answers known.
1. O=C(Cn1cc(COc2ccc(/C=N/Nc3nnc(-c4ccccc4)c(-c4ccccc4)n3)cc2)nn1)Nc1ccccc1[N+](=O)[O-] [Compound 13l] = 48.45
2. O=C(Cn1cc(COc2ccc(/C=N/Nc3nnc(-c4ccccc4)c(-c4ccccc4)n3)cc2)nn1)Nc1ccc(Br)cc1 [Compound 13k] = 56.12
3. Cc1ccccc1NC(=O)Cn1cc(COc2ccc(/C=N/Nc3nnc(-c4ccccc4)c(-c4ccccc4)n3)cc2)nn1 [Compound 13b] = 67
4. O=C(Cn1cc(COc2ccc(/C=N/Nc3nnc(-c4ccccc4)c(-c4ccccc4)n3)cc2)nn1)Nc1ccccc1 [Compound 13a] = 81.33
5. COc1ccc(NC(=O)Cn2cc(COc3ccc(/C=N/Nc4nnc(-c5ccccc5)c(-c5ccccc5)n4)cc3)nn2)cc1 [Compound 13f] = 72.67
6. O=C(Cn1cc(COc2ccc(/C=N/Nc3nnc(-c4ccccc4)c(-c4ccccc4)n3)cc2)nn1)NCc1ccccc1 [Compound 13m] = 80

API: the following record is the query input.
Prompt: Could you share which Inhibation value was measured for O=C(Cn1cc(COc2ccc(/C=N/Nc3nnc(-c4ccccc4)c(-c4ccccc4)n3)cc2)nn1)Nc1ccccc1Cl [Compound 13h] ?
Response: 79.31

---

Item-by-item account of log10 of IC50
# ASSAY TARGET: α-glucosidase (Saccharomyces cerevisiae)
# Construct: the yeast form of α-glucosidase, which was extracted from Saccharomyces cerevisiae; purchased Sigma-Aldrich; host or cells: Saccharomyces cerevisiae (extracted)
# PROTOCOL SUMMARY: Anti-α-glucosidase assay (p-nitrophenyl-α-D-glucopyranoside substrate, absorbance 405 nm)
# Assay type: biochemical
# ASSAY CONDITIONS: IC50, yeast α-glucosidase; mean ± SD, at least three experiments
Heads up: the numbers are on a log10 scale; they represent IC50 in µM.

Completed entries (count: 5):
1. COc1ccc(NC(=O)Cn2cc(COc3ccc(/C=N/Nc4nnc(-c5ccccc5)c(-c5ccccc5)n4)cc3)nn2)cc1 [Compound 13f] = 1.04
2. O=C(Cn1cc(COc2ccc(/C=N/Nc3nnc(-c4ccccc4)c(-c4ccccc4)n3)cc2)nn1)Nc1ccc(Cl)cc1 [Compound 13j] = -0.92
3. Cc1ccccc1NC(=O)Cn1cc(COc2ccc(/C=N/Nc3nnc(-c4ccccc4)c(-c4ccccc4)n3)cc2)nn1 [Compound 13b] = 1.10
4. O=C(Cn1cc(COc2ccc(/C=N/Nc3nnc(-c4ccccc4)c(-c4ccccc4)n3)cc2)nn1)Nc1ccc(Br)cc1 [Compound 13k] = 1.18
5. O=C(Cn1cc(COc2ccc(/C=N/Nc3nnc(-c4ccccc4)c(-c4ccccc4)n3)cc2)nn1)Nc1ccccc1[N+](=O)[O-] [Compound 13l] = 1.53

Prompt: Lab note: need log10 of IC50 for O=C(Cn1cc(COc2ccc(/C=N/Nc3nnc(-c4ccccc4)c(-c4ccccc4)n3)cc2)nn1)Nc1cccc(Cl)c1 [Compound 13i] on α-glucosidase (Saccharomyces cerevisiae), anyone have it?
Response: 1.07
